B1: CPEB3 Ribozyme (parent)
chain: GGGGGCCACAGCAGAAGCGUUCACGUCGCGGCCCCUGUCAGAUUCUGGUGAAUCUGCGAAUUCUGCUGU

variants of: B1; experiment: self-cleavage, relative activity (ratio to wild type); higher = more cleavage; co-transcriptional
self-cleavage for assorted variants
assay metric: self-cleavage

[[record]]
sequence_text = "GGGGGCCACAGCAGAAGCGGUCACGUCGCGGCCCCUGUCAGAUUCUGGUGAAUCUGCGAUUUCUGCUGU [U20G A60U]"
reported = 0.073

[[record]]
sequence_text = "GGGGCCCACAGCAGAAGCGUUCCCGUCGCGGCCCCUGUCAGAUUCUGGUGAAUCUGCGAAUUCUGCUGU [G5C A23C]"
reported = 0.228

[[record]]
sequence_text = "GGGGGCCACAGCAGAAGCGUUCACGUCGCGGCCCCUGUCAGAUUCUGGUGAAUCUGCGUAUUGUGCUGU [A59U C63G]"
reported = 0.545

[[record]]
sequence_text = "GGGGGCCACAGCAGAAGCGUUCACAUCGCGGCCCCUGUCAGAUUCUGGUGAAUGUGCGAAUUCUGCUGU [G25A C54G]"
reported = 0.208

[[record]]
sequence_text = "GGGGGCCACAGCAGACGCGUUCACGUCGCGGCCCCUUUCAGAUUCUGGUGAAUCUGCGAAUUCUGCUGU [A16C G37U]"
reported = 0.0859

[[record]]
sequence_text = "GGGGCCCACAGCAGAAGCGUUCACGUCGCGGCCCAUGUCAGAUUCUGGUGAAUCUGCGAAUUCUGCUGU [G5C C35A]"
reported = 0.0866

[[record]]
sequence_text = "GGGGGCCACAGCAGAAGCGUUCACGUCGCGGCCCCUGUCAGCUUCUGGUGAAUCUGCGAAUUCUACUGU [A42C G65A]"
reported = 0.627

[[record]]
sequence_text = "GGGGGCCACAGAAGAAGCGUUCACGUCGCGGCCCCUGUCAGAUUCUGGUGAAUGUGCGAAUUCUGCUGU [C12A C54G]"
reported = 0.392

[[record]]
sequence_text = "GGGGGCCACAGCAGAAGCAUUCACUUCGCGGCCCCUGUCAGAUUCUGGUGAAUCUGCGAAUUCUGCUGU [G19A G25U]"
reported = 0.164

[[record]]
sequence_text = "GGGGGCCACAGCAGAAGCGUCCACGUCGCGGCCCCUGUAAGAUUCUGGUGAAUCUGCGAAUUCUGCUGU [U21C C39A]"
reported = 0.498

[[record]]
sequence_text = "GGGGGCCACAGCAGAAGCGUUCACGUCGCGGCCCGUGUCAGAUUCUGGUGAAUCUGCGAAUUCUGCUGA [C35G U69A]"
reported = 0.543

[[record]]
sequence_text = "GGGGGCCACAGCAGAAGCGUUCACGUCGCGGCCCCUGUCAGAUUCUGGUGUAUCUGCGAAUUCGGCUGU [A51U U64G]"
reported = 0.826

[[record]]
sequence_text = "GGGGGCCGCAGCAGAAGCGUUCACGUCGCGGCCCCUGUCAGAUUCUGGUGAAUCUGCGAAUUCUGUUGU [A8G C66U]"
reported = 0.5

[[record]]
sequence_text = "GGGGGCCACAGCAGAAGCGUACACGUCGCGGCCCCUGUCACAUUCUGGUGAAUCUGCGAAUUCUGCUGU [U21A G41C]"
reported = 0.694

[[record]]
sequence_text = "GGGGGCCACAGCAGACGCGUUCACGUCGCGGCCCCUGUCAGAUUCUGGCGAAUCUGCGAAUUCUGCUGU [A16C U49C]"
reported = 0.377

[[record]]
sequence_text = "GGGGGCCACAGCAGAAGCGUUCACGUCGCGGCCCCUUUCAGAUUCUGGUGAAUCUGCGAAUUCUGGUGU [G37U C66G]"
reported = 0.201

[[record]]
sequence_text = "GGGGGCCACAGCAGAGGCGUUCACGUCGCGGCCCCUGUCAGAUUCUGGUGAAUCUGCGAAUUCUGCUCU [A16G G68C]"
reported = 0.981

[[record]]
sequence_text = "GGGGGCCACAGUAGAAGCGUUCACGUCGCGGCCCCUGUCAGAUUAUGGUGAAUCUGCGAAUUCUGCUGU [C12U C45A]"
reported = 0.97

[[record]]
sequence_text = "GGGGGCCACAGCAGAAGCGUUCACGUCGCGGCCGCUGUCAGAUUCUUGUGAAUCUGCGAAUUCUGCUGU [C34G G47U]"
reported = 0.605

[[record]]
sequence_text = "GGGGGCCACAGCAGAAGCAUUCACGUCGCGGCCCCUGUCAGAUUCUGGUGAAUCUGCGAAUUCUGCCGU [G19A U67C]"
reported = 0.177

[[record]]
sequence_text = "GGGGGCCACAGCAGAAGCGUUCAGGUCGCGGCCCCUGUCAGAUUCUUGUGAAUCUGCGAAUUCUGCUGU [C24G G47U]"
reported = 0.508

[[record]]
sequence_text = "GGGGGCCACAGCAGAAGCGUUCACGUCGCGGCCCCUGUCAGAUUCUGGUGAAUCAGCGAAUUCGGCUGU [U55A U64G]"
reported = 0.613

[[record]]
sequence_text = "GGGGGCCACUGCAGAAGCGUACACGUCGCGGCCCCUGUCAGAUUCUGGUGAAUCUGCGAAUUCUGCUGU [A10U U21A]"
reported = 1

[[record]]
sequence_text = "GGGGGCCACAGCAGAAGCGUUCUCGUCGCGGCCCCUGUCAGAUUCUGGUGAAUCUGCGACUUCUGCUGU [A23U A60C]"
reported = 0.385

[[record]]
sequence_text = "GGGUGCCACAGCAGAAGCGUUCACGUCGCGGCCCCUGUCAGAUUCAGGUGAAUCUGCGAAUUCUGCUGU [G4U U46A]"
reported = 0.746

[[record]]
sequence_text = "GGGGGCCACAGCAGAAGCGUUCACGUCGCGGCCCCUGUCAGAUUCUGGAGAAUCUGCGAUUUCUGCUGU [U49A A60U]"
reported = 0.582

[[record]]
sequence_text = "GGGGGCCACAGCAGAAGCCUUCACGUCGCGGCCCCAGUCAGAUUCUGGUGAAUCUGCGAAUUCUGCUGU [G19C U36A]"
reported = 0.188

[[record]]
sequence_text = "GGGGGCCACAGCAGAAGCGCUCACGUCGCGGCCCCUGUUAGAUUCUGGUGAAUCUGCGAAUUCUGCUGU [U20C C39U]"
reported = 0.176

[[record]]
sequence_text = "GGGGGCCACAGCAGAAGCGUUCACGUCGCGGCCCCUGCCAGAUUCUGGUGAAUCUGCGAAUUCUGCCGU [U38C U67C]"
reported = 0.949

[[record]]
sequence_text = "GGGGGCCACAGCAGAGGCGUUCACGUCGCGGCCCCUGUCAGAUUCUGGUGAAUCUGAGAAUUCUGCUGU [A16G C57A]"
reported = 0.335

[[record]]
sequence_text = "GGCGGCCCCAGCAGAAGCGUUCACGUCGCGGCCCCUGUCAGAUUCUGGUGAAUCUGCGAAUUCUGCUGU [G3C A8C]"
reported = 0.0756

[[record]]
sequence_text = "GGGGGCCACAGUAGUAGCGUUCACGUCGCGGCCCCUGUCAGAUUCUGGUGAAUCUGCGAAUUCUGCUGU [C12U A15U]"
reported = 0.502

[[record]]
sequence_text = "GGGGGCCACAGCAGAAGCGUUCACGUCGCGGCCCCUGUCAGAUUCUGGUGAAUCUGCGCAUUCUGCUUU [A59C G68U]"
reported = 0.939

[[record]]
sequence_text = "GGGCGCCACAGCAGAAGCGUUCACGUCGCGGCCCCUGUCAAAUUCUGGUGAAUCUGCGAAUUCUGCUGU [G4C G41A]"
reported = 0.0714

[[record]]
sequence_text = "GGGGGCCACAGCGGAAGCGUUCACAUCGCGGCCCCUGUCAGAUUCUGGUGAAUCUGCGAAUUCUGCUGU [A13G G25A]"
reported = 0.186

[[record]]
sequence_text = "GGGGGCCACAGCAGAAACGCUCACGUCGCGGCCCCUGUCAGAUUCUGGUGAAUCUGCGAAUUCUGCUGU [G17A U20C]"
reported = 0.0978

[[record]]
sequence_text = "GGGGGCCACAGCAGAAGCGCUCACGUCGCGGCCCCUGUCAGAUUCCGGUGAAUCUGCGAAUUCUGCUGU [U20C U46C]"
reported = 0.257

[[record]]
sequence_text = "GGGGGCCACAGCAGAAGCGUUCACGUCGCGGCCCCUGUCAGAUUCUGGUGAAUUUGCGUAUUCUGCUGU [C54U A59U]"
reported = 0.883

[[record]]
sequence_text = "GGGGGCCACAGCAGAAGCGUUCACGUCGCGGCCCCUGUCCGAUUCGGGUGAAUCUGCGAAUUCUGCUGU [A40C U46G]"
reported = 0.802

[[record]]
sequence_text = "GGGGGCCACAGCAGAAGCGUUCACGUCGCGGCCCCUUUCAGAUUCUGGUGAAUCUGCGAAUUCUGAUGU [G37U C66A]"
reported = 0.267

[[record]]
sequence_text = "GGGGGCCACAGCAGAAGCGUUCACGUCGCGGCCCCUGUCAGAUUCUGGUGAAUCUCAGAAUUCUGCUGU [G56C C57A]"
reported = 0.3

[[record]]
sequence_text = "GGGGCCCACAGCAGAAGCGUUCACGUCGCGGCCCCUGUCAAAUUCUGGUGAAUCUGCGAAUUCUGCUGU [G5C G41A]"
reported = 0.194

[[record]]
sequence_text = "GGGGGCCACAGCAGAAGCGUUCACGUCGCGGCCCCUGUCAGAUUCGGGUGAAUCUGCGAGUUCUGCUGU [U46G A60G]"
reported = 0.952

[[record]]
sequence_text = "AGGGGCCACAGCAGAAGCGUUCACGUCGCGGACCCUGUCAGAUUCUGGUGAAUCUGCGAAUUCUGCUGU [G1A C32A]"
reported = 0.0486

[[record]]
sequence_text = "GCGGGCCACAGCAGAAGCGUUCACGUCGCGGCCCCUGUCAGAUUCUGGUGAAUCUGCCAAUUCUGCUGU [G2C G58C]"
reported = 0.0216

[[record]]
sequence_text = "GGGGGCCACAGCAGAAGCGUUCACGUCGCGGUCCCUGUCAGAAUCUGGUGAAUCUGCGAAUUCUGCUGU [C32U U43A]"
reported = 0.933

